Ref: patent US20220372013A2

- Test system: mice
- test.name: Biological Example 5: acute toxicity experiment of single oral administration in mice
- Type: in vivo
- conditions.used: Female mice; Day 2; single oral 1000 mg/Kg; Mean ± SD
Recorded measurements of Daily Body Weight, one per entry
property: Daily Body Weight (g)

| compound | property | measured.value |
| --- | --- | --- |
| COCCN1C(=O)CCC(N2C(=O)c3ccc(F)c(N)c3C2=O)C1=O (stereo not shown) | Daily Body Weight | 22.1 |
| C[S+]([O-])CCN1C(=O)CCC(N2C(=O)c3cccc(N)c3C2=O)C1=O (stereo not shown) | Daily Body Weight | 21.8 |
| CSCCN1C(=O)CCC(N2C(=O)c3cccc(N)c3C2=O)C1=O (stereo not shown) | Daily Body Weight | 21.7 |
| COCCCN1C(=O)CCC(N2C(=O)c3cccc(F)c3C2=O)C1=O (stereo not shown) | Daily Body Weight | 21.9 |
| COCCN1C(=O)CCC(N2C(=O)c3cccc(O)c3C2=O)C1=O (stereo not shown) | Daily Body Weight | 22.4 |
| COCCN1C(=O)CCC(N2C(=O)c3cccc(F)c3C2=O)C1=O (stereo not shown) | Daily Body Weight | 21.8 |
| COCCCN1C(=O)CCC(N2C(=O)c3cccc(N)c3C2=O)C1=O (stereo not shown) | Daily Body Weight | 21.9 |
| Nc1cccc2c1C(=O)N(C1CCC(=O)N(CCO)C1=O)C2=O (stereo not shown) | Daily Body Weight | 21.5 |
| COCCN1C(=O)CCC(N2C(=O)c3cccc(NC(C)=O)c3C2=O)C1=O (stereo not shown) | Daily Body Weight | 22.8 |
| COCCN1C(=O)CCC(N2C(=O)c3c(N)ccc(O)c3C2=O)C1=O (stereo not shown) | Daily Body Weight | 21.9 |
| CCOCCN1C(=O)CCC(N2C(=O)c3cccc(N)c3C2=O)C1=O (stereo not shown) | Daily Body Weight | 20.7 |
| COCCCN1C(=O)CCC(N2C(=O)c3ccc(N)cc3C2=O)C1=O (stereo not shown) | Daily Body Weight | 22.5 |
| COCCN1C(=O)CCC(N2C(=O)c3ccc(O)c(N)c3C2=O)C1=O (stereo not shown) | Daily Body Weight | 22.9 |

----------
- Test system: mice
- test.name: Biological Example 5: acute toxicity experiment of single oral administration in mice
- Format: in vivo
- conditions.used: Female mice; Day 7; single oral 1000 mg/Kg; Mean ± SD
property: Daily Body Weight (g)

| compound | measured.value |
| --- | --- |
| CSCCN1C(=O)CCC(N2C(=O)c3cccc(N)c3C2=O)C1=O (centres unmarked) [Example 11] | 23.2 |
| COCCN1C(=O)CCC(N2C(=O)c3c(N)ccc(O)c3C2=O)C1=O (centres unmarked) [Example 10] | 24.2 |
| COCCN1C(=O)CCC(N2C(=O)c3cccc(C)c3C2=O)C1=O (centres unmarked) [Example 24] | 24.8 |
| COCCN1C(=O)CCC(N2C(=O)c3ccc(F)c(N)c3C2=O)C1=O (centres unmarked) [Example 9] | 23.6 |
| COCCCN1C(=O)CCC(N2C(=O)c3cccc(N)c3C2=O)C1=O (centres unmarked) [Example 26] | 22.4 |
| C[S+]([O-])CCN1C(=O)CCC(N2C(=O)c3cccc(N)c3C2=O)C1=O (centres unmarked) [Example 12] | 25.7 |
| CCOCCN1C(=O)CCC(N2C(=O)c3cccc(N)c3C2=O)C1=O (centres unmarked) [Example 19] | 23.0 |
| CS(=O)(=O)CCN1C(=O)CCC(N2C(=O)c3cccc(N)c3C2=O)C1=O (centres unmarked) [Example 13] | 23.6 |
